target: Mitogen-activated protein kinase 13 (Homo sapiens); conditions: at 0.1 µM
endpoint-name: inhibition (%)
The response must be a number in % with no trailing unit.

As a guide, the following entries are already answered.
- molecule: "COC(=O)Nc1nc2cc(Oc3cccc(NC(=O)Nc4cc(C(F)(F)F)ccc4F)c3)ccc2[nH]1"
  inhibition (%): -4.01
- molecule: "CS(=O)(=O)CCNCc1ccc(-c2ccc3ncnc(Nc4ccc(OCc5ccccc5)c(Cl)c4)c3c2)o1"
  inhibition (%): 0.47
- molecule: "CS(=O)(=O)CCNCc1nc(-c2ccc3ncnc(Nc4ccc(F)c(Cl)c4)c3c2)cs1"
  inhibition (%): 2.57
- molecule: "CS(=O)(=O)CCNCc1ccc(-c2ccc3ncnc(Nc4ccc(OCc5cccc(F)c5)c(C(F)(F)F)c4)c3c2)o1"
  inhibition (%): 1.37
- molecule: "NS(=O)(=O)c1cccc(-c2ccc3c(NC(=O)C4CC4)n[nH]c3c2)c1"
  inhibition (%): -0.02
- molecule: "CS(=O)(=O)CCN(CC#N)Cc1ccc(-c2ccc3ncnc(Nc4ccc(OCc5cccc(F)c5)c(Cl)c4)c3c2)o1"
  inhibition (%): 3.05
- molecule: "COc1cc2ncn(-c3cc(OCc4ccccc4C(F)(F)F)c(C(N)=O)s3)c2cc1OC"
  inhibition (%): 5.41
- molecule: "CCn1c(-c2nonc2N)nc2cnc(Oc3cccc(NC(=O)c4ccc(OCCN5CCOCC5)cc4)c3)cc21"
  inhibition (%): -1.34
- molecule: "O=C1NC(=O)C(c2ccc(Cl)cc2)=C1Nc1ccc(Cl)c(C(=O)O)c1"
  inhibition (%): -5.51
- molecule: "Fc1cccc(COc2ccc(Nc3ncnc4cc(-c5ccc[nH]5)sc34)cc2Cl)c1"
  inhibition (%): 1.98

Asked: Report its inhibition with Mitogen-activated protein kinase 13 (Homo sapiens) as the test system: `CCn1c(-c2nonc2N)nc2c(N3CCCC3)nccc21`
Given back: -0.53

Asked: GET inhibition | system: Mitogen-activated protein kinase 13 (Homo sapiens) | item: `NS(=O)(=O)c1ccc(N/N=C2\C(=O)Nc3ccc(C(=O)NCCc4c[nH]cn4)cc32)cc1`
Given back: -1.15

Asked: Write inhibition of `COc1ccc(-c2ccncc2)cc1C(N)=O` ; system used: Mitogen-activated protein kinase 13 (Homo sapiens)
Given back: 5.1

Asked: Provide inhibition, system Mitogen-activated protein kinase 13 (Homo sapiens), entry `c1cnn2ncc(-c3ccnc(Nc4ccc5c(c4)OCCO5)n3)c2c1`
Given back: 4.89

Asked: Name the recorded inhibition of `Cn1cc(C=C2C(=O)Nc3cccnc32)c2ccccc21` , assay system Mitogen-activated protein kinase 13 (Homo sapiens).
Given back: -0.63

Asked: With Mitogen-activated protein kinase 13 (Homo sapiens) as the test system, provide measured inhibition for this molecule: `COc1cc2ncn(-c3cc(O[C@@H](C)c4ccccc4Cl)c(C(N)=O)s3)c2cc1OC`
Given back: 4.76

Asked: Report value: inhibition, system: Mitogen-activated protein kinase 13 (Homo sapiens), molecule: CC1=C(C(=O)Nc2ccc3[nH]ncc3c2)C(c2ccc(Cl)c(Cl)c2)CC(=O)N1 (stereo not given)
Given back: -0.61

Asked: Output reported inhibition of the molecule `COc1cc2ncn(-c3cc(O[C@H](C)c4ccccc4Cl)c(C(N)=O)s3)c2cc1OC` on Mitogen-activated protein kinase 13 (Homo sapiens).
Given back: 2.38

Asked: Tell me inhibition of `O=C1Nc2ccc(C(=O)c3ccco3)cc2C1=Cc1cc(Cl)c(O)c(Cl)c1` when tested on Mitogen-activated protein kinase 13 (Homo sapiens).
Given back: 0.88

Asked: Specify the recorded inhibition for `CN(C)c1cc2c(Nc3ccc4nc(Cc5ccccc5)[nH]c4c3)ncnc2cn1` , system: Mitogen-activated protein kinase 13 (Homo sapiens).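 Note: reported value is the mean percent inhibition of p38delta.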
Given back: 1.99
